Target under test: dopamine release
Experiment: Determination of receptor activation/inhibition: dopamine release
Protocol conditions: 50% inhibition of agonist induced receptor activation
Recorded metric: IC50 (nM)
Kindly answer with a numeric value in nM, unit omitted.

Challenge: Requested read-out: IC50. Entry: CCOc1cncc(C2C3CC4CC(C3)CN2C4)c1 (stereo not shown)
Response given: 846

---

# Ki values compiled below
Target under test: CNS nicotinic receptors (Rattus norvegicus, UniProt P09483+P12390)
Construct: from tissue
Sequence (P09483 31-630): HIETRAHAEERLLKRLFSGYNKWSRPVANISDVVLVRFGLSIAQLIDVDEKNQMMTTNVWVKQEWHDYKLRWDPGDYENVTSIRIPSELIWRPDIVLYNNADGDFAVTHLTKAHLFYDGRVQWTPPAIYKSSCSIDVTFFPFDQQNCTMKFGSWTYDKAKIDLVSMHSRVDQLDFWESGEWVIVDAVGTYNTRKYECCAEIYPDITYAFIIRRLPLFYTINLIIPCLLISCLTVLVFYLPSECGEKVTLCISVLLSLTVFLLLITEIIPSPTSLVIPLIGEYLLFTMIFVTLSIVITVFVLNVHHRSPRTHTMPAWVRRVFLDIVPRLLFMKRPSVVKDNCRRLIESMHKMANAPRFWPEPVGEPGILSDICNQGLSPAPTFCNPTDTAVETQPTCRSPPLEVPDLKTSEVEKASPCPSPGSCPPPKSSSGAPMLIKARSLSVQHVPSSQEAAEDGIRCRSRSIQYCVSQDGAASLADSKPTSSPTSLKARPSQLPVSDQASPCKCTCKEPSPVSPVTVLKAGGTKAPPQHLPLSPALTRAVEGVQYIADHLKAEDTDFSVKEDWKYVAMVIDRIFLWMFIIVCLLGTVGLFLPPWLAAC
Sequence (P12390 25-500): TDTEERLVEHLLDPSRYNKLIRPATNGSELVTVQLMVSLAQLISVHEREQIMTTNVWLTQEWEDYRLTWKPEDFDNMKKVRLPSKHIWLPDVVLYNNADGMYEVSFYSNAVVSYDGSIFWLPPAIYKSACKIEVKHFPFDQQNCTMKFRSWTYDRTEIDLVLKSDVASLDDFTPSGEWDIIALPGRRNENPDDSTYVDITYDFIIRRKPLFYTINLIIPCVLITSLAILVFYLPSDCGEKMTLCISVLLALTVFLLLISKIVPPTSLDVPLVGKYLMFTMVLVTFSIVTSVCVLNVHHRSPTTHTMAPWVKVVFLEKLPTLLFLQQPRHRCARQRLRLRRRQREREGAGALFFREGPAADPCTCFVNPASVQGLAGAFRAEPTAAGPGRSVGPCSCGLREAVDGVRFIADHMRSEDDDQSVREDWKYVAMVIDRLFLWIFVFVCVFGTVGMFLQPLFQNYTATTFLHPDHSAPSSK
Experiment: Determination of binding to relevant receptor sites
Protocol conditions: calculated from IC50 values using the method of Cheng et al.; read-out: Ki
A number alone suffices; assume nM.

{"columns": ["Compound", "Ki (nM)"],
 "data": [
  ["Cl.Cl.Cl.Nc1cncc(C2C3CC4CC(C3)CN2C4)c1 (centres unmarked) [Sample No. 3, trihydrochloride]", 44]
]}

Now look at this entry.
Challenge: Find the recorded Ki belonging to c1cncc(C2C3CC4CC(C3)CN2C4)c1 (centres unmarked) and report it.
Response given: 15

---

The compounds listed here are annotated with their Emax.
Target under test: muscle-type receptors (Homo sapiens, UniProt P02708+P07510+Q07001)
Construct: endogenous in cells
Sequence (P02708 21-457): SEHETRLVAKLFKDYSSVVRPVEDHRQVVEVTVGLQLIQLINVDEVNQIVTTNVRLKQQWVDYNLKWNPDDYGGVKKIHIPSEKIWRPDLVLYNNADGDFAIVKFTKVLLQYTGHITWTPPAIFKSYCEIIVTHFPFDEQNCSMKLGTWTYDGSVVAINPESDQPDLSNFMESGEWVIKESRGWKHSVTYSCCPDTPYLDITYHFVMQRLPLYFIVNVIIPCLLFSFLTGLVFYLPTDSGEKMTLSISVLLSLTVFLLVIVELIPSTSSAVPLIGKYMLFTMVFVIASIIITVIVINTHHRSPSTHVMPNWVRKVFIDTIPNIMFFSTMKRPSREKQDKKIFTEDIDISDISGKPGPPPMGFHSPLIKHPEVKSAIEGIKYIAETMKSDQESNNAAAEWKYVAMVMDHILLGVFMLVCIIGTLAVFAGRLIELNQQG
Sequence (P11230 24-501, further chain): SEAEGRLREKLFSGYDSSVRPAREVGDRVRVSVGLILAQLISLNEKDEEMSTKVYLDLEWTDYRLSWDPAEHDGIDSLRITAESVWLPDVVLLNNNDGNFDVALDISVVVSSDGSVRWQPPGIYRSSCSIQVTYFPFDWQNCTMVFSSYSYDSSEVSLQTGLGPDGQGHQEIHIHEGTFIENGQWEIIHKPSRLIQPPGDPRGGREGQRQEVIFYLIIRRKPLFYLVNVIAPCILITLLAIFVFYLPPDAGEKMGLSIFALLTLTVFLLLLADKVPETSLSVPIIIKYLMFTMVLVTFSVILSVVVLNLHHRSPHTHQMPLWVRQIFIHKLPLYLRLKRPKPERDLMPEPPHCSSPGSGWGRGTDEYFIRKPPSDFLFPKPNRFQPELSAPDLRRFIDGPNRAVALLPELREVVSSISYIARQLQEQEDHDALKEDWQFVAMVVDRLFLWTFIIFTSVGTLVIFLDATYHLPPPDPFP
Sequence (P07510 23-517): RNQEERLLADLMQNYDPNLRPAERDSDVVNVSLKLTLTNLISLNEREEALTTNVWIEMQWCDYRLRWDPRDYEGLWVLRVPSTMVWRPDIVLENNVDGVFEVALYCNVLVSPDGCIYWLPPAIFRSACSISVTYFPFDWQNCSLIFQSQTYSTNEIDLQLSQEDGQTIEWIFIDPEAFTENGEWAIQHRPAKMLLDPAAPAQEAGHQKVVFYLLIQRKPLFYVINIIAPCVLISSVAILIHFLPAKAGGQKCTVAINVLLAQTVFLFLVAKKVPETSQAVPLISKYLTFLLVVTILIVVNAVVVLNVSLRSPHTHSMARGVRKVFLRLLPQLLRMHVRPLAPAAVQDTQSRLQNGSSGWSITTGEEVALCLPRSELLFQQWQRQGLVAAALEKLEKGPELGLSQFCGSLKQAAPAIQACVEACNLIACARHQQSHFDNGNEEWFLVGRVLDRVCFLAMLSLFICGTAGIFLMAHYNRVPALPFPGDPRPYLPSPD
Sequence (Q07001 22-517): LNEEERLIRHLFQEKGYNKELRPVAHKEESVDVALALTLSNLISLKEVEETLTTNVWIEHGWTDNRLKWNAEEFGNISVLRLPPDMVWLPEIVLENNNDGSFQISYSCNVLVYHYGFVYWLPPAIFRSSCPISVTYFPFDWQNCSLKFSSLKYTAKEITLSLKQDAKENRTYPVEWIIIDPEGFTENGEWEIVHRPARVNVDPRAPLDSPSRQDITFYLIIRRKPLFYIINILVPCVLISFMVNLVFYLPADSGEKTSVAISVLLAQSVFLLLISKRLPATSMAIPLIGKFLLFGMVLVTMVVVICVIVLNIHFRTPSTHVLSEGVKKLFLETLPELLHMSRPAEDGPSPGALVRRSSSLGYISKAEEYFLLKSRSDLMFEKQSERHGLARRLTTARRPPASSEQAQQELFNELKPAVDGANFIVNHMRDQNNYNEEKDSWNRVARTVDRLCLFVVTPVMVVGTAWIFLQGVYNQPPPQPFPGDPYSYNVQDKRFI
Experiment: Determination of interaction with muscle receptors
Format: biochemical
Protocol conditions: percentage of the maximal activation induced by (S)-(-)-nicotine
Respond with the bare value in %.

Past entries and their recorded results:
{"columns": ["Compound", "Target under test", "Unit", "Emax"],
 "data": [
  ["CCOc1cncc(C2C3CC4CC(C3)CN2C4)c1 (centres unmarked)", "muscle-type receptors (Homo sapiens, UniProt P02708+P07510+Q07001)", "%", 22],
  ["c1cncc(C2C3CC4CC(C3)CN2C4)c1 (centres unmarked)", "muscle-type receptors (Homo sapiens, UniProt P02708+P07510+Q07001)", "%", 21],
  ["CC(C)Oc1cncc(C2C3CC4CC(C3)CN2C4)c1 (centres unmarked)", "muscle-type receptors (Homo sapiens, UniProt P02708+P07510+Q07001)", "%", 114],
  ["Brc1cncc(C2C3CC4CC(C3)CN2C4)c1 (centres unmarked)", "muscle-type receptors (Homo sapiens, UniProt P02708+P07510+Q07001)", "%", 32]
]}

Field: next compound
Challenge: Bench note: what Emax did Cl.Cl.Cl.Nc1cncc(C2C3CC4CC(C3)CN2C4)c1 (centres unmarked) [Sample No. 3, trihydrochloride] show?
Response given: 75

The values you see were collected from patent US5952339A.
